Test system: NCI-H719 tumor spheroids, viability
Assay: Anticancer human tumor NCI-H719 cell line growth inhibition;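 also: spheroids exposed to compounds for seven days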
Details: curve of first compound; second compound 0.03 µM; spheroids with HUVEC and MSC
pIC50: −log10 of the molar value.
The compounds listed here are annotated with their pIC50.

Below: 3 compounds and their reported pIC50.
[[record]]
compound = "Cc1sc2c(c1C)C(c1ccc(Cl)cc1)=NC(CC(=O)Nc1ccc(O)cc1)c1nnc(C)n1-2 (stereo not given) + CC[C@@]1(O)C(=O)OCc2c1cc1n(c2=O)Cc2cc3c(CN(C)C)c(O)ccc3nc2-1"
outcome_measure = "pIC50"
measured_value = "> 8.02"

[[record]]
compound = "Cc1cc(C)c(CNC(=O)c2cc(-c3ccc(CN4CCOCC4)cc3)cc3c2cnn3C2CCCC2)c(=O)[nH]1 + CC[C@@]1(O)C(=O)OCc2c1cc1n(c2=O)Cc2cc3c(CN(C)C)c(O)ccc3nc2-1"
outcome_measure = "pIC50"
measured_value = "> 7.50"

[[record]]
compound = "CC1COCCN1c1cc(-c2ccnn2C)c2ccnc(-c3ccn[nH]3)c2n1 (stereo not given) + CC[C@@]1(O)C(=O)OCc2c1cc1n(c2=O)Cc2cc3c(CN(C)C)c(O)ccc3nc2-1"
outcome_measure = "pIC50"
measured_value = "> 7.50"


Please give the documented pIC50 of CC(C)n1c(=O)n(C)c2cnc3cc(F)c(-c4ccc(OCCCN5CCCCC5)nc4)cc3c21 + CC[C@@]1(O)C(=O)OCc2c1cc1n(c2=O)Cc2cc3c(CN(C)C)c(O)ccc3nc2-1 > 7.50

Please give the documented pIC50 of Cn1ncnc1[C@H]1c2n[nH]c(=O)c3cc(F)cc(c23)N[C@@H]1c1ccc(F)cc1 + CC[C@@]1(O)C(=O)OCc2c1cc1n(c2=O)Cc2cc3c(CN(C)C)c(O)ccc3nc2-1 > 8.02

Reference source: PubChem BioAssay AID1845212
